TEST_SYSTEM: TRAIL R2 (recombinant, form not given) (human, UniProt O14763, biotin (in the capture ELISA and the competition ELISA of Example 14))
TEST_NAME: SPR (ProteOn XPR36), TRAIL R2 immobilised, equilibrium analysis
pKd: −log10 of the molar value.
Please mark 1 if the recorded pKd is equal to or greater than 6, and 0 if it falls below.

Record excerpt, results attached:
Test whether the binder G3 (designed binder) AIEVKDVTDTTALITWAKPEKWDPPLWGCELAYGIKDVPGDRTTIDLNSRHTAYSIGNLKPDTEYEVSLICFTPYGAKSNPAKETFTTGGGTLGHHHHHHHH records pKd of 6 or higher.
1

Test whether the binder A1(1E11) (designed binder) AIEVKDVTDTTALITWAKPWVDPPPLWGCELAYGIKDVPGDRTTIDLQQKHTAYSIGNLKPDTEYEVSLICFDPYGAKSNPAKETFTTGGGTLGHHHHHHHH records pKd of 6 or higher.
1

Test whether the binder 1C12 (designed binder) AIEVKDVTDTTALITWAKPEKWDGSIYGCELAYGIKDVPGDRTTIDLNSRHTAYSIGNLKPDTEYEVSLICFTPYGAKSNPAKETFTTGGGTLGHHHHHHHH records pKd of 6 or higher.
0

Further cases:
Test whether the binder C4 (designed binder) AIEVKDVTDTTALITWAKPWVDPPPLWGCELAYGIKDVPGDRTTIDLQQKHTAYSIGNLKPDTEYEVSLICFDPYNKRNVPAKETFTTGGGTLGHHHHHHHH records pKd of 6 or higher.
1

Test whether the binder G6 (designed binder) AIEVKDVTDTTALITWAKPWVDPPPLWGCELAYGIKDVPGDRTTIDLQQKHTAYSIGNLKPDTEYEVSLICFDPYGMRSKPAKETFTTGGGTLGHHHHHHHH records pKd of 6 or higher.
1
